Measured values drawn from the RNAGym collection of RNA variant scans (doi:10.1002/anie.201605470) for this set.

B1: Osa-1-4 twister ribozyme (parent)
chain: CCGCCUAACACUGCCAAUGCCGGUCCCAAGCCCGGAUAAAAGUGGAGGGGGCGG

variants of: B1; test: self-cleavage, relative activity (ratio to wild type); higher = more cleavage; co-transcriptional
Reported endpoint: self-cleavage

# example entries with known answers
variant C31A C9U , self-cleavage observed: 0.03

The variant listed as C52A U24G shows self-cleavage equal to 0.04

Noted for A10C C11U : its self-cleavage reads 0.51

Entry A28G A29U , self-cleavage reported as 0.06

Entry A16C G34A — recorded self-cleavage = 0.44

What the record says about G23U G44U : self-cleavage is 0.06

Reported self-cleavage ( A41G G51C ) = 0.09

A16G G30C yielded self-cleavage of 0.05

Notebook: A38C A39G , self-cleavage read as 0.96

For reference, reported self-cleavage for C25U G44A stands at 0.32

New cases:
self-cleavage recorded for this variant, A7C C20G , is 0.01

Record C26G G13U , field self-cleavage: 0.01

self-cleavage reading for A46U G44U : 0.07

// field: self-cleavage; key: C25A U43G ; value = 0.06

Entry under test: C21G C33G . Its self-cleavage was 0.05

Looking up C52A G13C , I see its self-cleavage listed as 0.04

Measured self-cleavage of A38G C25G : 0.11

self-cleavage in this record for G34U G54U : 0.49
